Listed here are molecules together with their documented pIC50.
Target: full length human Dynamin I (Homo sapiens)
Construct: full length human Dynamin I expressed in Sf21 insect cells; made in house; host or cells: Sf21 insect cells
Sequence (Q05193 1-864): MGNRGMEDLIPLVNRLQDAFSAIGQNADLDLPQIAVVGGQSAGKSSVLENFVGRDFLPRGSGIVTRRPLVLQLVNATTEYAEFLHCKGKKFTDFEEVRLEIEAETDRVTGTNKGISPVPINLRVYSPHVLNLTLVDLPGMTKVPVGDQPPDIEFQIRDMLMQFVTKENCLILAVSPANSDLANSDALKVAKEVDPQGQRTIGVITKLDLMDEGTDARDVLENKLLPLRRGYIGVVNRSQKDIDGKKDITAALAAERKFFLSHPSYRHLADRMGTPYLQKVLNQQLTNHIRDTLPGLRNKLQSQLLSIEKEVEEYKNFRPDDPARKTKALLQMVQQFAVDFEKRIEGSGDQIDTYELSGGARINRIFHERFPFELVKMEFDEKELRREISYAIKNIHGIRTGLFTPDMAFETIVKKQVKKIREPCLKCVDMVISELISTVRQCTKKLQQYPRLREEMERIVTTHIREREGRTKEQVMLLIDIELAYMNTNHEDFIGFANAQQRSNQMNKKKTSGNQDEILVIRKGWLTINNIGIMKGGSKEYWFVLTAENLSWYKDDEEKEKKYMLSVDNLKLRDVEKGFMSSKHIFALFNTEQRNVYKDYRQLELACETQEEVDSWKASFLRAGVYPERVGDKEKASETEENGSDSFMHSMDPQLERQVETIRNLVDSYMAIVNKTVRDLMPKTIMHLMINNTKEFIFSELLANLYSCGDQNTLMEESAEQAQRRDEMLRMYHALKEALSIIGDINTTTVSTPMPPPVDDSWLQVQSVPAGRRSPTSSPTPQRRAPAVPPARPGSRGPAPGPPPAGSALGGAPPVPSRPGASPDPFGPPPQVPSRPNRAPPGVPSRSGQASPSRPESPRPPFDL
Test: Dynamin GTPase activity, Malachite Green phosphate detection assay
Format: biochemical
Details: Table 2, library 2; n = 3, triplicate; '–' = not active at 100 μM; read-out: Dyn 1 IC50
Remember the convention: pIC50 equals -log10 of concentration in molar.

1. O=C1N=C(NS(=O)(=O)c2cccc3ccccc23)S/C1=C\c1ccc(O)c(O)c1O [compound 28]    4.46

Kindly consider the entry below.
Q. Look up pIC50: O=C1N=C(NS(=O)(=O)c2cccc3ccccc23)S/C1=C\c1cccc(O)c1O [compound 24]
A. 4.07

---

Reported IC50 by item:
Target: clathrin heavy chain NTD (amino acids 1–364) – amphiphysin 1 B/C domain protein–protein interaction (NTD‐PPI) (Homo sapiens, UniProt Q00610)
Construct: GST‐tagged clathrin heavy chain NTD (amino acids 1–364); made in house
Sequence (Q00610 1-364): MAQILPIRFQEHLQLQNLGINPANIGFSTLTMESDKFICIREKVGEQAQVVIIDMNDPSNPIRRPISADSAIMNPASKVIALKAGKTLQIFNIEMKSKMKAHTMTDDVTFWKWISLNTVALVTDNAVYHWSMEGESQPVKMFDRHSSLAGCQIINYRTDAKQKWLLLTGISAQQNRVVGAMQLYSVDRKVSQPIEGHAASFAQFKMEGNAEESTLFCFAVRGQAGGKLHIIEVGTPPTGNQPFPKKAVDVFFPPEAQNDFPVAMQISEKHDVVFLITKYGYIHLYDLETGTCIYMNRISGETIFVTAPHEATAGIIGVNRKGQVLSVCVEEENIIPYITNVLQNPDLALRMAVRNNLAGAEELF
Experiment: ELISA-based clathrin inhibitor binding assay (NTD-PPI)
Conditions: Table 5; ELISA; read-out: NTD‐PPI IC50
Experimental: The clathrin inhibitor assay was based inhibition of protein–protein interaction (PPI) between clathrin and amphiphysin as described in our previous report.^[ [45], [54] ^] […] The amount of bound protein was determined by spectrophotometric measurement in a plate reader. Relative binding was calculated as a percentage of DMSO control.
Report only the number, with the unit µM understood.

1) O=C1N=C(NS(=O)(=O)c2cccc3ccccc23)S/C1=C\c1ccc(O)cc1 [compound 6]    5.6

Q. Need IC50 of O=C1N=C(NS(=O)(=O)c2cccc3ccccc23)SC1=Cc1ccc(-c2ccccc2)cc1 [compound 18] , thanks.
A. 1.4

Q. Looking for the measured IC50 of O=C1N=C(NS(=O)(=O)c2cccc3ccccc23)S/C1=C\c1ccccc1[N+](=O)[O-] [compound 15] , can you help?
A. 153

Q. For O=C1N=C(NS(=O)(=O)c2cccc3ccccc23)S/C1=C\c1ccc([N+](=O)[O-])cc1 [compound 13] , what is its reported IC50?
A. 5.2

Q. Consider the compound O=C1N=C(NS(=O)(=O)c2cccc3ccccc23)S/C1=C\c1ccco1 [compound 48] and give its measured IC50.
A. 3.64

Q. IC50 for O=C1N=C(NS(=O)(=O)c2cccc3ccccc23)S/C1=C\c1ccoc1 [compound 46] ?
A. 2.11

---

biological target: full length human Dynamin I (Homo sapiens, UniProt Q05193); construct: full length human Dynamin I expressed in Sf21 insect cells; made in house; host or cells: Sf21 insect cells; test: Dynamin GTPase activity, Malachite Green phosphate detection assay; assay type: biochemical; conditions: values quoted in running text (section 2.2); read-out: Dynamin IC50
Classify: yes when IC50 is strictly less than 90 µM; no when IC50 is not.

Below, 3 compounds whose answers are already recorded.
1) O=C1N=C(NS(=O)(=O)c2cccc3ccccc23)S/C1=C\C1=Cc2ccccc2OC1    yes
2) CCCCc1ccc(/C=C2\SC(NS(=O)(=O)c3cccc4ccccc34)=NC2=O)cc1    no
3) O=C1N=C(NS(=O)(=O)c2cccc3ccccc23)S/C1=C\c1ccc2c(c1)OCCO2    yes

Please find the next compound below.
Q. Lab note: IC50 threshold 90 µM. Does this compound come in strictly under it? `CC(=O)Nc1ccc(/C=C2\SC(NS(=O)(=O)c3cccc4ccccc34)=NC2=O)cc1`
A. no

---

Target: full length human Dynamin I (Homo sapiens)
Construct: full length human Dynamin I expressed in Sf21 insect cells; made in house; host or cells: Sf21 insect cells
Sequence (Q05193 1-864): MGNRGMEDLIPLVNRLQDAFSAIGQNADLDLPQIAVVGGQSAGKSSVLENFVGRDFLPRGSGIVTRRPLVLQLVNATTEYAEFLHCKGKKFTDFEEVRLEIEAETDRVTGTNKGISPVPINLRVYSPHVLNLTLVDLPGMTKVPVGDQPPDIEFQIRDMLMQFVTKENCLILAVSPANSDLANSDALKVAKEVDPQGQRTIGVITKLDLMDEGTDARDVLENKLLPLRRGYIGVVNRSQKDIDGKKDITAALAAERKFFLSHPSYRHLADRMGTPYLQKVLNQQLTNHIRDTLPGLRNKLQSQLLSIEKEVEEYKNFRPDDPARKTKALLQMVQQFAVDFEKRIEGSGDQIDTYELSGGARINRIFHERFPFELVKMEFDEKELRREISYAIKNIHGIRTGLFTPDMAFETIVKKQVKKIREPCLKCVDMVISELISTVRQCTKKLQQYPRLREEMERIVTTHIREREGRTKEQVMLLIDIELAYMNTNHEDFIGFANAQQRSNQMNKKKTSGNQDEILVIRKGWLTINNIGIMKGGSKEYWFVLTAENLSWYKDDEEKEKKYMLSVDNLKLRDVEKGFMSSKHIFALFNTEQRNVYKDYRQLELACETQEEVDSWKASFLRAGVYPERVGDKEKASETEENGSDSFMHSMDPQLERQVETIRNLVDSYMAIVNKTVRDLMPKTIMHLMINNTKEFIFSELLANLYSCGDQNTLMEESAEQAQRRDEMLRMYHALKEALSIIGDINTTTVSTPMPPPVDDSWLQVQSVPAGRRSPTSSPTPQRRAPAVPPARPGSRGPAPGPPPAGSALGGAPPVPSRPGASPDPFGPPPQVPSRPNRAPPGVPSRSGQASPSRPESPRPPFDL
Test: Dynamin GTPase activity, Malachite Green phosphate detection assay
Format: biochemical
Conditions: Table 2, library 2; n = 3, triplicate; '–' = not active at 100 μM; read-out: Dyn 1 IC50
endpoint.name: IC50 (µM)
Return type: number; implicit unit µM.

1) O=C1N=C(NS(=O)(=O)c2cccc3ccccc23)S/C1=C\c1ccc(Cl)cc1Cl [compound 35]    66.8

Q. IC50 lookup needed for O=C1N=C(NS(=O)(=O)c2cccc3ccccc23)S/C1=C\c1ccc(O)c(O)c1 [compound 27] , thanks.
A. 50.4

Q. // returns reported IC50 for input O=C1N=C(NS(=O)(=O)c2cccc3ccccc23)S/C1=C\c1ccc(O)cc1O [compound 25]
A. 61.2

---

biological target: full length human Dynamin I (Homo sapiens, UniProt Q05193); construct: full length human Dynamin I expressed in Sf21 insect cells; made in house; host or cells: Sf21 insect cells; assay: Dynamin GTPase activity, Malachite Green phosphate detection assay; format: biochemical; conditions: Table 5; dynamin GTPase; n = 1 or n = 2 as footnoted; NA = not active at 100 μM; read-out: Dynamin 1 IC50
pIC50: −log10 of the molar value.
As shown below, each of these molecules has a reported pIC50 value.

Look over these answered cases.
1) O=C1N=C(NS(=O)(=O)c2cccc3ccccc23)S/C1=C\c1ccc2c(c1)CCO2    < 4.00
2) O=C1N=C(NS(=O)(=O)c2cccc3ccccc23)S/C1=C\c1ccccc1[N+](=O)[O-]    ~4.37

# evaluate next
Q. Would you kindly share the measured pIC50 for `O=C1N=C(NS(=O)(=O)c2cccc3ccccc23)S/C1=C\c1ccc2nsnc2c1` ?
A. ~4.16

---

target: clathrin heavy chain NTD (amino acids 1–364) – amphiphysin 1 B/C domain protein–protein interaction (NTD‐PPI) (Homo sapiens, UniProt Q00610); construct: GST‐tagged clathrin heavy chain NTD (amino acids 1–364); made in house; assay: ELISA-based clathrin inhibitor binding assay (NTD-PPI); details: read-out: NTD‐PPI IC50 (ELISA)
endpoint.name: pIC50
// scale note: pIC50 = -log10(conc_M); give the bare number

Solved cases (5 shown):
1. O=C1N=C(NS(=O)(=O)c2cccc3ccccc23)S/C1=C\c1ccc(CO)o1    5.20
2. O=C1N=C(NS(=O)(=O)c2cccc3ccccc23)S/C1=C\c1ccco1    5.44
3. O=C1N=C(NS(=O)(=O)c2cccc3ccccc23)S/C1=C\c1ccc(O)cc1    5.57
4. Cc1[nH]c2ccccc2c1/C=C1\SC(NS(=O)(=O)c2cccc3ccccc23)=NC1=O    5.62
5. Cn1cc(/C=C2\SC(NS(=O)(=O)c3cccc4ccccc34)=NC2=O)c2ccccc21    5.52

Q. Look up pIC50: `O=C1N=C(NS(=O)(=O)c2cccc3ccccc23)S/C1=C\c1ccc2c(c1)OCCO2`
A. 5.94

Q. Value lookup for pIC50; key = `O=C1N=C(NS(=O)(=O)c2cccc3ccccc23)S/C1=C\c1c[nH]c2cc(Br)ccc12`
A. 5.47

Sourced from paper PMC12368479
